target: Cellular tumor antigen p53 (Homo sapiens)
experiment description: TOX21_p53_BLA_p2_ratio: Tox21 HCT-116 p53 Agonism Beta-lactamase Assay, Ratio, Phase 2 (AID 2283592)
Procedure: TOX21_p53_BLA_p2 is a cell-based, single-readout assay that uses HCT116, a human intestinal cell line, […] in a 1536-well plate.TOX21_p53_BLA_p2_ratio is an assay readout measuring reporter gene via receptor activity and designed using inducible reporter (beta lactamase induction) detected with GAL4 b-lactamase reporter gene. […] This assay endpoint, TOX21_p53_BLA_p2_ratio, was analyzed in the positive analysis fitting direction relative to DMSO as the negative control and baseline of activity. […]
Results filed as inconclusive are left out. Calls of active or inactive are those of the source. Rule for the calls: active = hit-call score of the fitted dose curve at least 0.9, where 1 is the maximum; inconclusive = response in the unintended direction; inactive = score below 0.9.
value type: AC50

The value of AC50 measured for the compound `CCN(Cc1cccc(S(=O)(=O)O)c1)c1ccc(C(=C2C=CC(=[N+](CC)Cc3cccc(S(=O)(=O)O)c3)C=C2)c2ccccc2S(=O)(=O)[O-])cc1` turned out to be inactive

The reported AC50 of the compound OC12N=C(c3ccccc3)SC1Cc1cc(Cl)ccc12 (configuration not stated) was 71.5 µM (active)

// recorded AC50 for `CCCC(=O)OCCC(C)C` : inactive

Quick note, AC50 for `CN(C)C(=O)C1(N2CCCCC2)CCN(CC[C@@]2(c3ccc(Cl)c(Cl)c3)CN(C(=O)c3ccccc3)CCO2)CC1` landed at 70.9 µM (active)

Measured AC50 of `O=CCCCC=O` : inactive

Continuing:
For reference, reported AC50 for `NC(=O)c1nc(-c2cccc(-c3cc(F)ccc3OCC(F)(F)C(F)(F)F)c2)n[nH]1` stands at 79.6 µM (active)

Recorded AC50 (compound `CCCCCCCC[Si](OCC)(OCC)OCC` ): inactive

Entry under test: `CCCCCCCCOC(=O)c1cc(O)c(O)c(O)c1` . Its AC50 was 50 µM (active)

AC50 for `Oc1ccccc1` is inactive

Entry under test: `O=C=NCCCCCCN=C=O` . Its AC50 was inactive

Form: compound = CC(O)CC(C)(C)O (configuration not stated) ; AC50 = inactive

Record `C[C@]12CC[C@@H]3c4ccc(O)cc4CC[C@H]3[C@@H]1CC[C@H]2O` . Reported AC50: 15.9 µM (active)

Just so you know, measured AC50 for `O=C(O)Cn1c(=O)n(Cc2ccc(Br)cc2F)c(=O)c2ccc(Cl)cc21` came out at inactive

Consider `Cc1cn([C@H]2C[C@H](N=[N+]=[N-])[C@@H](CO)O2)c(=O)[nH]c1=O` . Its measured AC50 is inactive

compound `O=C(O)c1ccccc1-n1cc(C(=O)O)c(=O)c2cc(Nc3c(F)cc(F)cc3Cl)c(Cl)cc21` , AC50 observed: inactive

The recorded AC50 for entry `Cc1cc(F)ccc1-c1cc(N2CC[C@@H](O)[C@H]2CO)ncc1N(C)C(=O)C(C)(C)c1cc(C(F)(F)F)cc(C(F)(F)F)c1` equals 21.8 µM (active)

AC50 measured on `O=C1CCC(C2CCCCC2)CC1` = inactive
